These entries and their values trace back to paper PMC4081100.

Target: GST-ANAC092(1-176) (Arabidopsis thaliana, UniProt Q9FKA0 1-176)
Sequence: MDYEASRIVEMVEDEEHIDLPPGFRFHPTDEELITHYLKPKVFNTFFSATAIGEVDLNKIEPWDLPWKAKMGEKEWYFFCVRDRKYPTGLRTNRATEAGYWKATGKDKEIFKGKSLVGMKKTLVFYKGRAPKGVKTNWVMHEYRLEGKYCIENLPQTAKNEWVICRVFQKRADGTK
Assay: universal protein binding microarray (PBM); transcription factors of Arabidopsis thaliana; high values mean tight binding
Conditions: protein: recombinant; tags: GST; chain copies: 2; dsDNA, one strand shown
MEASURED_PARAMETER: binding signal
# output: numeric value plus its unit

Past entries and their recorded results:
SEQUENCE_CHAIN	MEASURED_PARAMETER	RESULT
AGACGTAA	binding signal	0.425 E-score
TGCGTAAA	binding signal	0.396 E-score
AACGTAAG	binding signal	0.32 E-score
ACGCAAAC	binding signal	0.459 E-score
TGACGTAA	binding signal	0.449 E-score
GAAGAAAC	binding signal	0.203 E-score
ACGCAAGA	binding signal	0.449 E-score
AGATTGAC	binding signal	0.135 E-score
AAGAAACC	binding signal	0.246 E-score
CACGAAAG	binding signal	0.407 E-score

// map `TTACGTAA` to recorded binding signal (system: GST-ANAC092(1-176) (Arabidopsis thaliana, UniProt Q9FKA0 1-176))
0.476 E-score

// map `GCTTTCCC` to recorded binding signal (system: GST-ANAC092(1-176) (Arabidopsis thaliana, UniProt Q9FKA0 1-176))
0.124 E-score

// map `TCACGCAA` to recorded binding signal (system: GST-ANAC092(1-176) (Arabidopsis thaliana, UniProt Q9FKA0 1-176))
0.488 E-score

// map `AAGGAAGC` to recorded binding signal (system: GST-ANAC092(1-176) (Arabidopsis thaliana, UniProt Q9FKA0 1-176))
0.219 E-score

// map `TACGTTAA` to recorded binding signal (system: GST-ANAC092(1-176) (Arabidopsis thaliana, UniProt Q9FKA0 1-176))
0.43 E-score

// map `ACGCAATC` to recorded binding signal (system: GST-ANAC092(1-176) (Arabidopsis thaliana, UniProt Q9FKA0 1-176))
0.48 E-score

// map `GTTGCGTA` to recorded binding signal (system: GST-ANAC092(1-176) (Arabidopsis thaliana, UniProt Q9FKA0 1-176))
0.486 E-score
